Please respond with reported hERG current change (%, negative = inhibition) at 10uM for every item in the list.
Target: human ether-à-go-go-related gene (hERG) potassium channel (human);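 note: peak tail current of the secondary pulse compared with the same well before compound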
Assay: primary screen, population patch clamp on CHO cells stably expressing hERG; higher = less effect of the substance
The whole screen tested about 310,000 compounds, of which about 14,000 (4.5%) showed an effect of 50% or more. The effect is printed as a negative number. The sample as a whole holds a higher share of strong results than the screen did.
Value expressed in %; do not type the unit.

Q: Given the entry `C[C@]12C[C@H](O)[C@H]3[C@@H](CCC4=CC(=O)CC[C@@]43C)[C@@H]1CC[C@@H]2C(=O)CO` , what hERG current change (%, negative = inhibition) at 10uM was observed with human ether-à-go-go-related gene (hERG) potassium channel (human)?
Result: 0.529

Q: And for `O=C(CSc1ccc2nnc(-c3ccccn3)n2n1)Nc1ccc(F)cc1` ?
Result: -48.2

Q: And for `c1ccc(CSc2ccc3nnc(-c4ccccn4)n3n2)cc1` ?
Result: -69.5

Q: And for `CCOc1cc(/C=N\NC(=O)CC(=O)NCCc2ccccc2)ccc1O` ?
Result: 1.94

Q: And for `COc1ccccc1/C=C/C(=O)Nc1nc(N)n(-c2ccccc2)n1` ?
Result: -33.8

Q: And for `Nn1c(SCc2ccc(Br)cc2)nnc1-c1ccccn1` ?
Result: 17.5

Q: And for `O=C(CSc1ccc2nnc(-c3ccccn3)n2n1)Nc1ccc(F)cc1F` ?
Result: -30.4

Q: And for `O=C(COc1ccc(Cl)cc1)N1CCN(c2ccc([N+](=O)[O-])c(N3CCOCC3)c2)CC1` ?
Result: -71.5

Q: And for `O=C(Nc1ccnn1C1CCN(Cc2ccc(CO)o2)CC1)c1ccccc1` ?
Result: 1.16

Q: And for `COc1ccc(OC)c(CCNC(=O)CCc2nnc3ccc(N4CCOCC4)nn23)c1` ?
Result: 16.1

Q: And for `O=C(COc1ccccc1Cl)N1CCN(c2ccc([N+](=O)[O-])c(N3CCOCC3)c2)CC1` ?
Result: -25.7

Q: And for `Cc1cccc(C)c1NS(=O)(=O)c1c(C)[nH]c(=O)[nH]c1=O` ?
Result: -14.2

----------
Target: human ether-à-go-go-related gene (hERG) potassium channel (human);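 note: peak tail current of the secondary pulse compared with the same well before compound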
Assay: primary screen, population patch clamp on CHO cells stably expressing hERG; higher = less effect of the substance
About 14,000 (4.5%) of roughly 310,000 compounds showed an effect of 50% or more. Effects have a minus sign here. The list comes from a sample in which strong results are over-represented; it also holds close analogues and randomly drawn compounds.
measured_quantity: hERG current change (%, negative = inhibition) at 10uM (%)
Value expressed in %; do not type the unit.

Q: Given the entry `COc1ccc(-n2c(C)cc(C(=O)Cn3nc(C(=O)O)c4ccccc4c3=O)c2C)cc1` , what hERG current change (%, negative = inhibition) at 10uM was observed with human ether-à-go-go-related gene (hERG) potassium channel (human)?
Result: -1.43

Q: And for `CCOC(=O)CN1C(=O)S/C(=C/c2ccc(N3CCCCC3)o2)C1=O` ?
Result: 13.1

Q: And for `CCc1ccc2nc(Nc3nc(COC)cc(=O)[nH]3)nc(C)c2c1` ?
Result: -73.3

Q: And for `COc1ccccc1C(=O)NCC(=O)N1CC=C(c2ccccc2)CC1` ?
Result: 6.76

Q: And for CC(=O)NC(Cc1cccc(F)c1)C(=O)NC1CCN(C(=O)c2ccc(C)cc2)CC1 (stereo not shown) ?
Result: 33

Q: And for CCS(=O)(=O)Nc1cccc(C2=NN(C(=O)c3ccco3)C(c3ccco3)C2)c1 (stereo not shown) ?
Result: -4.98

Q: And for CSCCC(NC(=O)c1ccco1)C(=O)N1CC=C(c2ccccc2)CC1 (stereo not shown) ?
Result: -48

Q: And for `Cc1ccccc1OCCCCn1c(CO)nc2ccccc21` ?
Result: -45.1

Q: And for CC(=O)NC(Cc1ccc(F)cc1)C(=O)NC1CCN(c2nnnn2-c2ccccc2)CC1 (stereo not shown) ?
Result: -41

Q: And for `O=C(NCC(=O)N1CC=C(c2ccccc2)CC1)c1ccco1` ?
Result: -78.4

Q: And for `Cc1cccc(C)c1-n1nnnc1S(=O)(=O)Cc1ccccc1Cl` ?
Result: -18.2

Q: And for `COc1ccc2sc(N(CCN(C)C)C(=O)c3cc(Cl)sc3Cl)nc2c1.Cl` ?
Result: -0.167

Q: And for `Cn1cc(S(=O)(=O)N2CCCC2)cc1C(=O)NCc1ccc(Cl)cc1` ?
Result: 2.02

Q: And for `COCc1cc(=O)[nH]c(Nc2nc(C)c3ccccc3n2)n1` ?
Result: -8.74

Q: And for CC(=O)NC(Cc1ccc(F)c(F)c1)C(=O)NC1CCN(c2nnnn2-c2ccccc2)CC1 (stereo not shown) ?
Result: -54.6

Q: And for O=C(c1ccco1)N1N=C(c2ccc(Br)cc2)CC1c1ccco1 (stereo not shown) ?
Result: 18.5

Q: And for CC(=O)NC(Cc1cccc(F)c1)C(=O)NC1CCN(c2nnnn2-c2ccccc2)CC1 (stereo not shown) ?
Result: -5.71

Q: And for `Cc1cc(C)n(-c2nc3ccccc3c(=O)n2OCCOc2ccccc2)n1` ?
Result: -1.88

Q: And for `CCOC(=O)CN1C(=O)S/C(=C/c2ccco2)C1=O` ?
Result: 9.39

Q: And for `O=C(NCc1ccco1)c1cc2ccccc2o1` ?
Result: 11.8

Q: And for `COCc1cc(=O)[nH]c(Nc2nc(C)c3cc(OC)ccc3n2)n1` ?
Result: 7.05

Q: And for CS(=O)(=O)Nc1cccc(C2=NN(C(=O)c3ccco3)C(c3cccs3)C2)c1 (stereo not shown) ?
Result: -59

----------
Target: human ether-à-go-go-related gene (hERG) potassium channel (human, UniProt Q12809);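 note: peak tail current of the secondary pulse compared with the same well before compound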
Sequence (Q12809 whole entry, looked up): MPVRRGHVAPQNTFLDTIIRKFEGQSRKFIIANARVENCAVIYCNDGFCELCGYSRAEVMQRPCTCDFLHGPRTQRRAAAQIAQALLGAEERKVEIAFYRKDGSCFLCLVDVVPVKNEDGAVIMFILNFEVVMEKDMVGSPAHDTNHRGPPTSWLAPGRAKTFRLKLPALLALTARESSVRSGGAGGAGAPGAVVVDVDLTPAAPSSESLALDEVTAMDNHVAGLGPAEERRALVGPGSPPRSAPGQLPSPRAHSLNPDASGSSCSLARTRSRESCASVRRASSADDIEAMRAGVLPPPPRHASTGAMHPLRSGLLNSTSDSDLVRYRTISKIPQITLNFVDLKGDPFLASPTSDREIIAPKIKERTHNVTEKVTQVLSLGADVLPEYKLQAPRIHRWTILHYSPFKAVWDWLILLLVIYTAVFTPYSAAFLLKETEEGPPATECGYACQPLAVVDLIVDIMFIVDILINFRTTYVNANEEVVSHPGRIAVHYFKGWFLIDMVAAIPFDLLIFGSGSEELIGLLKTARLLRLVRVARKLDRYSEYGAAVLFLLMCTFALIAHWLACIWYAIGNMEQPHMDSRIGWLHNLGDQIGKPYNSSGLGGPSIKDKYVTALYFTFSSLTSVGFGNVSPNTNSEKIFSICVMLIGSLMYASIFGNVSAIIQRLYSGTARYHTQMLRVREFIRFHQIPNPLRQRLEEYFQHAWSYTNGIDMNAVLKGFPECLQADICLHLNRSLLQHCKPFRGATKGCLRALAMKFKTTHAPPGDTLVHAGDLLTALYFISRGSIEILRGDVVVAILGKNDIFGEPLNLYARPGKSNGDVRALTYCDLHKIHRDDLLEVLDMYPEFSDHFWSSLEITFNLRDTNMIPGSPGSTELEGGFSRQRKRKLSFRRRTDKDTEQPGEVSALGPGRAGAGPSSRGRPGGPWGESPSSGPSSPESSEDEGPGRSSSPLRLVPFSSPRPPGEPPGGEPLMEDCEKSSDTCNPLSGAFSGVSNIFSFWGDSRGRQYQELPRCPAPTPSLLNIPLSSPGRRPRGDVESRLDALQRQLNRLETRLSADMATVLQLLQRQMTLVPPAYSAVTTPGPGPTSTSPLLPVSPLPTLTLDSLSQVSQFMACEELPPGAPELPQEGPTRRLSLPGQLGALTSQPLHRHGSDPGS
Test: primary screen, population patch clamp on CHO cells stably expressing hERG; higher = less effect of the substance
Procedure: Briefly, Chinese hamster ovary (CHO) cells stably expressing the hERG channel were dislodged from tissue culture flasks and dispensed into PPC plates. […] During the recording, background leak currents were estimated by a 100 ms step to -80 mV from an initial holding potential of -70 mV and subtracted from the subsequent current measurement. The campaign was conducted in two phases using slight differences in recording protocol. […]
Hit rate of the full screen: of about 310,000 compounds, about 14,000 (4.5%) showed an effect of 50% or more. The effect is printed as a negative number. What follows is part of a selection rich in strong results, with near analogues and random picks from the rest.
Please respond with reported hERG current change (%, negative = inhibition) at 10uM for every item in the list.
Value expressed in %; do not type the unit.

Q: What value of measured hERG current change (%, negative = inhibition) at 10uM is listed for `Cc1[nH]c2ccccc2c1CN1CCC(CO)(Cc2ccccc2)CC1` ?
Result: -47.6

Q: And for `CCCCn1c(=O)n(C)c(=O)c2c(C(F)(F)F)cc(-c3ccncc3)nc21` ?
Result: -28

Q: And for `CCOC(=O)Cc1csc(NC(=O)Cc2ccc([N+](=O)[O-])cc2)n1` ?
Result: -64.9

Q: And for `CCOc1ccccc1N1CCN(C(=O)NCc2ccc(Cl)cc2)CC1` ?
Result: -14.6

Q: And for CC1CN(C)C(C)C/C1=N\Oc1ccc([N+](=O)[O-])cc1.Cl (stereo not shown) ?
Result: -78.6

Q: And for `CCCCNC(=O)CCC(=O)Nc1ccc2nc(N3CCCCC3)cc(C)c2c1` ?
Result: -18.5

Q: And for `CN1CCC(=NOc2ccc([N+](=O)[O-])cc2)CC1` ?
Result: -74.8

Q: And for `C/C(=N\NC(=O)c1ccncc1)c1cc2ccccc2o1` ?
Result: -20.5

Q: And for `CCN(CC(=O)NC(=O)NC1CCCCC1)Cc1nc2ccccc2c(=O)[nH]1` ?
Result: -8.1

Q: And for `C/C(=N\NC(=O)c1ccco1)c1cc2ccccc2o1` ?
Result: -9.09

Q: And for `Cc1cc(C)n(-c2ccc(C(=O)N3CCC(CO)(Cc4ccccc4)CC3)cc2)n1` ?
Result: 9.21

Q: And for CC(Sc1nnc(-c2cccs2)n1-c1ccccc1)C(=O)NCc1ccc2c(c1)OCO2 (stereo not shown) ?
Result: -74.8

Q: And for `CCS(=O)(=O)Nc1ccc(Cc2ccc(NS(=O)(=O)CC)cc2)cc1` ?
Result: -7.91

Q: And for `Cc1[nH]c2c(C)cccc2c1CN1CCC(CO)(Cc2ccccc2)CC1` ?
Result: -62.2

Q: And for Cc1nn(-c2ccccc2)c2c1C(c1ccc(F)cc1F)C(C#N)=C(N)O2 (stereo not shown) ?
Result: -9.42

Q: And for `Cc1cccc(S(=O)(=O)N2CCC(CO)(Cc3ccccc3)CC2)c1` ?
Result: -2.74

Q: And for `C/C(=N\NC(=O)c1nc2ccccn2c1C)c1ccc2c(c1)OCO2` ?
Result: -18.5

Q: And for O=C(NCC(c1cccnc1)N1CCOCC1)C1CCCCC1 (stereo not shown) ?
Result: 5

Q: And for `O=C(NCc1ccncc1)c1ccc(NS(=O)(=O)c2cccc([N+](=O)[O-])c2)cc1` ?
Result: 19.2

Q: And for Cc1cc(C)nc(N2CCCC(C(=O)NCc3cccc(C(F)(F)F)c3)C2)n1 (stereo not shown) ?
Result: 16.7

Q: And for `O=C(c1ccc(CS(=O)(=O)c2ccc(Br)cc2)o1)N1CCN(c2ccccn2)CC1` ?
Result: -36

Q: And for `Cc1c(OCc2ccc([N+](=O)[O-])cc2)ccc2c3c(c(=O)oc12)CCC3` ?
Result: 0.652

Q: And for `O=[N+]([O-])c1cccc(S(=O)(=O)Nc2ccc(Cc3ccncc3)cc2)c1` ?
Result: -72.2

Q: And for CC(Sc1nnc2ccccn12)C(=O)NCc1ccc2c(c1)OCO2 (stereo not shown) ?
Result: 4.95

Q: And for CC1CN(C)C(C)C/C1=N/Oc1ccccc1[N+](=O)[O-].Cl (stereo not shown) ?
Result: -26.5

Q: And for CC1CC(C)CN(S(=O)(=O)c2ccc(Oc3ccc([N+](=O)[O-])cc3)cc2)C1 (stereo not shown) ?
Result: -9.72

Q: And for `O=C1OC(c2ccc(Br)cc2)=N/C1=C\c1ccco1` ?
Result: 26.3

Q: And for `Cc1ccc(OCc2ccc(C(=O)N3CCOCC3)cc2)cc1C` ?
Result: -12.7

Q: And for `CCCCS(=O)(=O)Nc1ccc(Cc2ccncc2)cc1` ?
Result: -50.2

Q: And for `CCS(=O)(=O)Nc1ccc(Cc2ccncc2)cc1` ?
Result: -0.00702

Q: And for CC(Sc1nncn1C)C(=O)NCc1ccc2c(c1)OCO2 (stereo not shown) ?
Result: 34.9
